Assay Target: CDK6/Cyclin D3 (Homo sapiens, UniProt Q00534)
Sequence (Q00534 whole entry, looked up, the tested form may be a part): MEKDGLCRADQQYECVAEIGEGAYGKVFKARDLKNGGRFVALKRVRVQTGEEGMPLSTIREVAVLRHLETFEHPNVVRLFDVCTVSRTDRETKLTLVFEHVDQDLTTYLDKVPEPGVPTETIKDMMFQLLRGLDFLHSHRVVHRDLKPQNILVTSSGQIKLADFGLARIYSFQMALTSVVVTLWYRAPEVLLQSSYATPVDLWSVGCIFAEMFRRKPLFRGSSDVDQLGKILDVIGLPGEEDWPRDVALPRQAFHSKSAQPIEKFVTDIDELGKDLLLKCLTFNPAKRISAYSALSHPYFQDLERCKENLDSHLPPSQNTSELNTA
Assay Summary: Inhibition of human full-length N-terminal GST tagged CDK6 (1 to 326 residues)/GST-tagged cyclinD3 (1 to 292 residues) expressed in baculovirus expression system using ULight-elF4E-binding protein 1 peptide as substrate measured after 30 mins by LANCE assay
IC50 strictly under 5 nM means satisfied; at 5 nM or over means not satisfied.

CC(=O)c1c(C)c2cnc(Nc3ccc(N4CCNCC4)cn3)nc2n2cc(C(C)C)nc12 | satisfied
Cc1cn2c(n1)c(C#N)c(C)c1cnc(Nc3ccc(Cl)cc3)nc12 | not satisfied
CC(=O)c1c(C)c2cnc(Nc3ccc(N4CCNCC4)cc3)nc2n2cc(C(C)C)nc12 | satisfied
CC(=O)c1c(C)c2cnc(Nc3ccc(N4CCNCC4)cc3)nc2n2cc(C3CCCC3)nc12 | not satisfied
CCOC(=O)c1cn2c(n1)c(C(C)=O)c(C)c1cnc(Nc3ccc(N4CCNCC4)cc3)nc12 | not satisfied
CNCCN1CCc2nc(Nc3ncc4c(C)c(C(C)=O)c5nc(C(C)C)cn5c4n3)ccc2C1 | not satisfied
CC(=O)c1c(C)c2cnc(Nc3ccc(N4CCC(N(C)C)C4)cn3)nc2n2cc(C(C)C)nc12 (centres undefined) | satisfied
CC(=O)c1c(C)c2cnc(Nc3ccc(C(=O)N4CCNCC4)cn3)nc2n2cc(C(C)C)nc12 | not satisfied
CC(=O)c1c(C)c2cnc(Nc3ccc(N4CC5(CCOCC5)C4)cn3)nc2n2cc(C(C)C)nc12 | not satisfied
CC(=O)c1c(C)c2cnc(Nc3ccc(N4CCNCC4)cc3)nc2n2cc(C(C)(C)C)nc12 | satisfied
CC(=O)c1c(C)c2cnc(Nc3ccc(N4CCNCC4)cc3)nc2n2cc(C3CCCCC3)nc12 | not satisfied
Cc1cn2c(n1)c(C#N)c(C)c1cnc(Nc3ccc(Br)cc3)nc12 | not satisfied
Cc1cn2c(n1)c(C#N)c(C)c1cnc(Nc3ccccc3)nc12 | not satisfied
CC(=O)c1c(C)c2cnc(Nc3ccc(N4CCNCC4)cc3)nc2n2cc(-c3ccccc3)nc12 | not satisfied
CC(=O)c1c(C)c2cnc(Nc3ccc(N4CCC5(CCNC5)C4)cn3)nc2n2cc(C(C)C)nc12 (centres undefined) | satisfied
CC(=O)c1c(C)c2cnc(Nc3ccc4c(n3)CCNC4)nc2n2cc(C(C)C)nc12 | not satisfied
Cc1c(C#N)c2nc(C(C)C)cn2c2nc(Nc3ccc(N4CCNCC4)cc3)ncc12 | not satisfied
Cc1cn2c(n1)c(C#N)c(C)c1cnc(Nc3ccc(N4CCNCC4)cc3)nc12 | not satisfied

Measured values drawn from ChEMBL document CHEMBL4765279 for this set.
